Reported Kd values follow for various compounds
measuredOn: Receptor-interacting serine/threonine-protein kinase 1 (Homo sapiens)
Sequence (Q13546 whole entry): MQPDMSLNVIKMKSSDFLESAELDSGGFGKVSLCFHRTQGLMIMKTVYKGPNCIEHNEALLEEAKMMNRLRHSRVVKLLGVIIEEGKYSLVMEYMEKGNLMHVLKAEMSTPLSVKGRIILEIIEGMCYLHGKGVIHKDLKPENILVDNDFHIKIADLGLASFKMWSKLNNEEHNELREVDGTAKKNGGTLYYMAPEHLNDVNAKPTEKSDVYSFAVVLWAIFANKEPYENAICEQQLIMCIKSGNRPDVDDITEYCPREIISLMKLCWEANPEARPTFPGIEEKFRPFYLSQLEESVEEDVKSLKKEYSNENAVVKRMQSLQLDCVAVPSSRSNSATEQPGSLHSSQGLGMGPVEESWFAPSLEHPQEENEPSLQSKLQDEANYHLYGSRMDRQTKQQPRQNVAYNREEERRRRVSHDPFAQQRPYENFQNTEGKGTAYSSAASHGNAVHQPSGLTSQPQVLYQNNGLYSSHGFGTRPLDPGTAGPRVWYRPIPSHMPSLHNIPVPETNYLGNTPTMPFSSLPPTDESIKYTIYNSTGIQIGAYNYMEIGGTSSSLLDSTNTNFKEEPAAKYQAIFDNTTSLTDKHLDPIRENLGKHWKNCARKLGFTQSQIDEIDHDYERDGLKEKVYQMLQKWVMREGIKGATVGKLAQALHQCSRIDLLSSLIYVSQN
method: Binding affinity to recombinant RIPK1 (unknown origin) assessed as dissociation constant incubated for 1 hr by KINOMEscanTM assay
measuredAttribute: Kd (nM)

| compound | measurement |
| --- | --- |
| O=C(Cc1cccc(OC(F)(F)F)c1)Nc1cc(-c2ccc3nc(NC(=O)C4CC4)sc3c2)ccc1F | 17 |
| O=C(Cc1cccc(OC(F)(F)F)c1)Nc1cccc(-c2ccc3nc(NC(=O)C4CC4)sc3c2)c1F | 140 |

----------
Listed here: items and their measured CC50.
method: Cytotoxicity against human HT-29 cells assessed as reduction in cell viability incubated for 16 to 24 hrs by CellTiter-Glo Luminescent cell viability assay
Assay type: toxicity, cell-based
assayConditions: time 16-24 hrs

| compound | CC50 |
| --- | --- |
| O=C(Cc1cccc(OC(F)(F)F)c1)Nc1cc(C#Cc2ccc3nc(NC(=O)C4CC4)sc3c2)ccc1F | > 10 µM |
| O=C(Cc1cccc(OC(F)(F)F)c1)Nc1cc(-c2ccc3sc(NC(=O)C4CC4)nc3c2)ccc1F | > 10 µM |
| O=C(Cc1cccc(OC(F)(F)F)c1)Nc1cc(NC(=O)c2ccc3nc(NC(=O)C4CC4)sc3c2)ccc1F | > 10 µM |
| O=C(Cc1cccc(OC(F)(F)F)c1)Nc1cc(-c2cccc3nc(NC(=O)C4CC4)sc23)ccc1F | > 10 µM |
| O=C(Cc1cccc(OC(F)(F)F)c1)Nc1ccc(-c2ccc3nc(NC(=O)C4CC4)sc3c2)cc1F | > 10 µM |
| O=C(Cc1cccc(OC(F)(F)F)c1)Nc1cc(COc2ccc3nc(NC(=O)C4CC4)sc3c2)ccc1F | > 10 µM |
| CN(c1ccc(F)c(NC(=O)Cc2cccc(OC(F)(F)F)c2)c1)c1ccc2nc(NC(=O)C3CC3)sc2c1 | > 10 µM |
| O=C(Cc1cccc(OC(F)(F)F)c1)Nc1cc(Nc2ccc3nc(NC(=O)C4CC4)sc3c2)ccc1F | > 10 µM |
| O=C(Cc1cccc(OC(F)(F)F)c1)Nc1cccc(-c2ccc3nc(NC(=O)C4CC4)sc3c2)c1F | > 10 µM |
| O=C(Cc1cccc(OC(F)(F)F)c1)Nc1c(F)cccc1-c1ccc2nc(NC(=O)C3CC3)sc2c1 | > 10 µM |
| O=C(Cc1cccc(OC(F)(F)F)c1)Nc1cc(C(=O)Nc2ccc3nc(NC(=O)C4CC4)sc3c2)ccc1F | > 10 µM |
| O=C(Cc1cccc(OC(F)(F)F)c1)Nc1cc(C(=O)c2ccc3nc(NC(=O)C4CC4)sc3c2)ccc1F | > 10 µM |
| O=C(Cc1cccc(OC(F)(F)F)c1)Nc1cc(S(=O)(=O)c2ccc3nc(NC(=O)C4CC4)sc3c2)ccc1F | > 10 µM |
| O=C(Cc1cccc(OC(F)(F)F)c1)Nc1cc(Cc2ccc3nc(NC(=O)C4CC4)sc3c2)ccc1F | > 10 µM |
| O=C(Cc1cccc(OC(F)(F)F)c1)Nc1cc(Sc2ccc3nc(NC(=O)C4CC4)sc3c2)ccc1F | > 10 µM |
| O=C(Cc1cccc(OC(F)(F)F)c1)Nc1cc(-c2ccc3nc(NC(=O)C4CC4)sc3c2)ccc1F | > 10 µM |
| O=C(Cc1cccc(OC(F)(F)F)c1)Nc1cc(C(O)c2ccc3nc(NC(=O)C4CC4)sc3c2)ccc1F (stereo not drawn) | > 10 µM |
| O=C(Cc1cccc(OC(F)(F)F)c1)Nc1cc(-c2cccc3sc(NC(=O)C4CC4)nc23)ccc1F | > 10 µM |
